Origin of measurements: paper PMC4269550

- System: MRC5, human lung fibroblast cells
- Experiment Summary: in vitro
- Assay type: cell-based
Parameter: EC50 (nM)
# value in nM; strip the unit string

Cc1nn(C)c(C)c1N(C(F)F)S(=O)(=O)c1c(Cl)cc(CCCOC[C@@H]2CCCN2)cc1Cl [compound 86]
3300
Cc1nn(C)c(C)c1N(C(F)F)S(=O)(=O)c1c(Cl)cc(-c2ccnc(N3CCNCC3)c2)cc1Cl [compound 74]
140
Cc1nn(C)c(C)c1NS(=O)(=O)c1c(F)cc(-c2ccnc(N3CCNCC3)c2)cc1F [compound 59]
4700

# input for lookup
Identify the reported EC50 for the following entry. Cc1nn(C)c(C)c1N(C(F)F)S(=O)(=O)c1c(Cl)cc(CCCN2CCCNCC2)cc1Cl [compound 66] 340

====

- Experiment Summary: Mouse pharmacokinetics
- Assay type: in vivo
- Experimental Setup: female, NMRI, whole blood; mouse, oral dose 50mg/kg
Collected Cmax values appear next to each entry.
Only the number, expressed in ng/mL, is required.

Guide cases for Cmax, answers given:
Cc1nn(C)c(C)c1N(C(F)F)S(=O)(=O)c1c(Cl)cc(CCCC2CCN(C)CC2)cc1Cl
661
Cc1nn(C)c(C)c1N(C(F)F)S(=O)(=O)c1c(Cl)cc(CCCCC2CCN(C)CC2)cc1Cl
708

Now look at this entry.
Supply Cmax value. Item: Cc1nn(C)c(C)c1N(CC(F)(F)F)[S+](=O)([O-])c1c(Cl)cc(CCCC2CCN(C)CC2)cc1Cl 876

====

Parameter: IC50. Scope: all listed entries.
- Target Entity: TbNMT (Trypanosoma brucei brucei)
- Sequence (Q388H8 1-446): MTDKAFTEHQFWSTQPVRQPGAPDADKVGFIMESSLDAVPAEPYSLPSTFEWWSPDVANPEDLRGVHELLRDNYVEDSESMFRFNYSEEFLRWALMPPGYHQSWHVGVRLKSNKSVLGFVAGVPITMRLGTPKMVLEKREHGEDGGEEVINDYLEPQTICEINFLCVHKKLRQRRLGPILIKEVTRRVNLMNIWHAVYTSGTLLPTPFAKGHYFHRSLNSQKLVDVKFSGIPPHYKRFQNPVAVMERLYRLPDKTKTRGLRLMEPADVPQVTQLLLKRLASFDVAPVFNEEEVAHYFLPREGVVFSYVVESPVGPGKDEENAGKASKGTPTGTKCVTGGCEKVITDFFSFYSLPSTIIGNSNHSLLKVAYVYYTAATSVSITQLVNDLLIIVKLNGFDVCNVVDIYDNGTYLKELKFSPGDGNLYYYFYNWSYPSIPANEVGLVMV
- Experiment Summary: NMT enzyme inhibition scintillation proximity assay (TbNMT)
- Assay type: biochemical, T. brucei
- Experimental Setup: mean of two or more determinations; read-out: TbNMT IC50
Field format: number, assumed nM, no unit text.

Observe how each entry below is paired with its result.
Cc1nn(C)c(C)c1N(C(F)F)S(=O)(=O)c1c(Cl)cc(CCCCCCN(C)C(C)C)cc1Cl
3
Cc1nn(C)c(C)c1N(C(F)F)S(=O)(=O)c1c(Cl)cc(CCCOC[C@@H]2CCCN2)cc1Cl
2
Cc1nn(C)c(C)c1N(C(F)F)S(=O)(=O)c1c(Cl)cc(CCCOC2CC(C)(C)N(C)C(C)(C)C2)cc1Cl
10

Look up IC50 of Cc1nn(C)c(C)c1N(C(F)F)S(=O)(=O)c1c(Cl)cc(CCCOC2CCC(N(C)C)CC2)cc1Cl (stereo not shown) and report it. 2
